- target under test: human NaV 1.8 (Homo sapiens)
- method: E-VIPR assay detecting and measuring NaV inhibition properties
- Type: cell-based
- condition info: HEK cells expressing a truncated form of human NaV 1.8; electrical stimulation, membrane potential FRET dyes
pIC50: −log10 of the molar value.
parameter: pIC50

* Cc1c([C@@H]2[C@@H](C)[C@@](C)(C(F)(F)F)O[C@H]2C(=O)Nc2ccc(CO)nc2)ccc(F)c1F (single isomer, unassigned) | ≤ 6.00

Task: Requested field: pIC50. Item: COc1c([C@H]2[C@H](C(=O)Nc3ccc([C@@H](O)CO)[n+]([O-])c3)O[C@@](C)(C(F)(F)F)[C@H]2C)ccc(F)c1F
Result: > 8.00

Task: Now this one: COc1c([C@H]2[C@H](C(=O)Nc3ccc([C@@H](O)CO)nc3)O[C@@](C)(C(F)(F)F)[C@H]2C)ccc(F)c1F (single isomer, unassigned)
Result: > 8.00

Task: Now this one: COc1c(C2C(C(=O)Nc3ccc(CO)nc3)OC(C)(C(F)(F)F)C2C)ccc(F)c1C(F)F (single isomer, unassigned) [Compound 53]
Result: > 8.00

Task: Now this one: COc1c([C@H]2[C@H](C(=O)Nc3ccc([C@H](O)CO)nc3)O[C@@](C)(C(F)(F)F)[C@H]2C)ccc(F)c1C (single isomer, unassigned)
Result: 7.00 to 8.00

Task: Now this one: COc1c([C@H]2[C@H](C(=O)Nc3cnc(C(O)CO)nc3)O[C@@](C)(C(F)(F)F)[C@H]2C)cccc1C(F)(F)F (single isomer, unassigned) [Compound 71]
Result: 6.00 to 7.00

* * *

- target under test: human NaV 1.8 (Homo sapiens)
- method: E-VIPR assay detecting and measuring NaV inhibition properties
- condition info: HEK cells expressing a truncated form of human NaV 1.8; electrical stimulation, membrane potential FRET dyes
parameter: IC50

Example entries and their recorded answers appear below.
• COc1c(C2C(C(=O)Nc3ccc(C(O)CF)nc3)OC(C)(C(F)(F)F)C2C)ccc(F)c1F (single isomer, unassigned) [Compound 17] = 10 to 100 nM
• COc1c(C2C(C(=O)Nc3ccc(CO)nc3)OC(C)(C(F)(F)F)C2C)cccc1C(F)(F)F (single isomer, unassigned) [Compound 82] = < 10 nM
• COc1c([C@H]2[C@H](C(=O)Nc3ccc(C(C)O)nc3)O[C@@](C)(C(F)(F)F)[C@H]2C)ccc(F)c1C(F)F (relative stereo) [Compound 56] = 10 to 100 nM

Please turn your attention to the following entry.
Task: Return IC50 measured with human NaV 1.8 (Homo sapiens) given this molecule: COCCC(O)c1ccc(NC(=O)[C@@H]2O[C@@](C)(C(F)(F)F)[C@@H](C)[C@H]2c2ccc(F)c(F)c2OC)cn1 (single isomer, unassigned) [Compound 22]
Result: 10 to 100 nM

* * *

Recorded pIC50 by entry
- target under test: human NaV 1.8 (Homo sapiens, UniProt Q9Y5Y9)
- Sequence (Q9Y5Y9 126-1722 limits assumed): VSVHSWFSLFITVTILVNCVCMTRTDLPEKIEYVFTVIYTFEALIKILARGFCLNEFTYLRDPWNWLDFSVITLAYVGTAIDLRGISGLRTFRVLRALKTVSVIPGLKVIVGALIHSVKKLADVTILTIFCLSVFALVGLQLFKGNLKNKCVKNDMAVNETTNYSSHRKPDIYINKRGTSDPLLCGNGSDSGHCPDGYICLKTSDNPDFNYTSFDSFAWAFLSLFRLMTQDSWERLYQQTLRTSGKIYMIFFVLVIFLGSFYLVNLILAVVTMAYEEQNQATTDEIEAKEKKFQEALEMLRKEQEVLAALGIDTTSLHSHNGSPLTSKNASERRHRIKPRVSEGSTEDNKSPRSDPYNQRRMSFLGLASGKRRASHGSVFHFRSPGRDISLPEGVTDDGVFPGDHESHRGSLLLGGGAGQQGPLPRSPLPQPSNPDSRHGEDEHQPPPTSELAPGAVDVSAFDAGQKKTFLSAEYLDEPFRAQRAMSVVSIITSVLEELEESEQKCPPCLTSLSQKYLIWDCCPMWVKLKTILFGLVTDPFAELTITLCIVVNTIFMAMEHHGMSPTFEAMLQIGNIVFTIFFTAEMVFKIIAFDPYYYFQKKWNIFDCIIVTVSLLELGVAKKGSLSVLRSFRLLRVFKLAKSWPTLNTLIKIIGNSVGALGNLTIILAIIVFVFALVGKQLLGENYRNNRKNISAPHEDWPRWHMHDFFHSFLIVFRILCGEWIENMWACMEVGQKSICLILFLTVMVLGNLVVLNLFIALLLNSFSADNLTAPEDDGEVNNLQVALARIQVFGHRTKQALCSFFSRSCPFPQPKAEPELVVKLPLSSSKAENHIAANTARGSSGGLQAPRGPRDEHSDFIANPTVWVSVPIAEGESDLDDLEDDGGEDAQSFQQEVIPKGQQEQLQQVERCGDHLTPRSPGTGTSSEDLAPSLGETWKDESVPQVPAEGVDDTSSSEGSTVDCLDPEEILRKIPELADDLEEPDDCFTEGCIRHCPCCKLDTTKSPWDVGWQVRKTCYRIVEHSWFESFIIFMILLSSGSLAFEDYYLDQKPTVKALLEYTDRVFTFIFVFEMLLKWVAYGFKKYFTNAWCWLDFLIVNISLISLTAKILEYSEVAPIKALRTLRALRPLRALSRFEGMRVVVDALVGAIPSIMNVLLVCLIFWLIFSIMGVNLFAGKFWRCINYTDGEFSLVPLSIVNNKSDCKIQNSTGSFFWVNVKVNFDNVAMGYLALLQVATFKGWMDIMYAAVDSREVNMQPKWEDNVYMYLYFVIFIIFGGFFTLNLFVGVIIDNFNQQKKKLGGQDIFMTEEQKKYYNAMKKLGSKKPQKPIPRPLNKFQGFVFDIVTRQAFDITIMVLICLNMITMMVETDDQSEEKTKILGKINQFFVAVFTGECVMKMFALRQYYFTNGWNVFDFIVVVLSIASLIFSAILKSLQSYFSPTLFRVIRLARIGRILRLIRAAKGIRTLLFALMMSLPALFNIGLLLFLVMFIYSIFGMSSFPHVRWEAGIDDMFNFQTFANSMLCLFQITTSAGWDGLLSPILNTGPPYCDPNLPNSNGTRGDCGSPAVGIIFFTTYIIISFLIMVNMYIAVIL
- method: E-VIPR assay detecting and measuring NaV inhibition properties
- condition info: HEK cells expressing a truncated form of human NaV 1.8; electrical stimulation, membrane potential FRET dyes
- Description: E-VIPR Assay Detecting and Measuring NaV Inhibition Properties Sodium ion channels are voltage-dependent proteins that can be activated by inducing membrane voltage changes by applying electric fields. […]
pIC50: −log10 of the molar value.

Example entries and their recorded answers appear below.
* COc1c([C@@H]2C[C@](C)(C(F)(F)F)O[C@H]2C(=O)Nc2ccc([C@H](O)CO)nc2)ccc(F)c1F (single isomer, unassigned) | 6.00 to 7.00
* C[C@H]1[C@@H](c2ccc(F)c(F)c2OCCF)[C@H](C(=O)Nc2ccc([C@@H](O)CO)nc2)O[C@@]1(C)C(F)(F)F | > 8.00
* Cc1c([C@@H]2[C@@H](C(=O)Nc3ccc([C@@H](O)CO)nc3)O[C@](C)(C(F)(F)F)[C@@H]2C)ccc(F)c1F (single isomer, unassigned) | ≤ 6.00
* Cc1c([C@@H]2[C@@H](C(=O)Nc3ccc(CO)nc3)O[C@@](C)(C(F)(F)F)[C@H]2C)ccc(F)c1F (single isomer, unassigned) | ≤ 6.00

Task: Requested field: pIC50. Item: COc1c(C2C(C(=O)Nc3cnc(C(O)CO)nc3)OC(C)(C(F)(F)F)C2C)ccc(F)c1F (single isomer, unassigned) [Compound 12]
Result: 7.00 to 8.00

* * *

- target under test: human NaV 1.8 (Homo sapiens)
- method: E-VIPR assay detecting and measuring NaV inhibition properties
- condition info: HEK cells expressing a truncated form of human NaV 1.8; electrical stimulation, membrane potential FRET dyes
pIC50: −log10 of the molar value.
Recorded pIC50 by entry

Example entries and their recorded answers appear below.
* CCOc1c([C@H]2C[C@@](C)(C(F)(F)F)O[C@@H]2C(=O)Nc2ccc([C@@H](O)CO)nc2)ccc(F)c1F (single isomer, unassigned) [Compound 34] | ≤ 6.00
* COc1nc(C(F)F)ccc1[C@H]1[C@H](C(=O)Nc2ccc(CO)nc2)O[C@@](C)(C(F)(F)F)[C@H]1C (stereo in doubt) [Compound 88] | 6.00 to 7.00
* CCOc1c([C@@H]2[C@@H](C(=O)Nc3ccc([C@H](O)CO)nc3)O[C@](C)(C(F)(F)F)[C@@H]2C)ccc(F)c1C (single isomer, unassigned) [Compound 43] | ≤ 6.00
* COCCC(O)c1ccc(NC(=O)[C@@H]2O[C@@](C)(C(F)(F)F)[C@@H](C)[C@H]2c2ccc(F)c(F)c2OC)cn1 (single isomer, unassigned) [Compound 23] | 6.00 to 7.00

Task: Requested field: pIC50. Item: COc1c([C@H]2[C@H](C(=O)Nc3cnc(CO)cn3)O[C@@](C)(C(F)(F)F)[C@H]2C)ccc(F)c1F [Compound 86]
Result: 7.00 to 8.00

* * *

- target under test: human NaV 1.8 (Homo sapiens, UniProt Q9Y5Y9)
- method: E-VIPR assay detecting and measuring NaV inhibition properties
- condition info: HEK cells expressing a truncated form of human NaV 1.8; electrical stimulation, membrane potential FRET dyes
Recorded IC50 by entry

Task: Requested field: IC50. Item: CCOc1c([C@@H]2C[C@](C)(C(F)(F)F)O[C@H]2C(=O)Nc2ccc([C@@H](O)CO)nc2)ccc(F)c1F (single isomer, unassigned) [Compound 35]
Result: 10 to 100 nM

Task: Now this one: COc1c([C@@H]2[C@@H](C(=O)Nc3ccc([C@@H](O)CO)nc3)O[C@](C)(C(F)(F)F)[C@@H]2C)ccc(F)c1C (single isomer, unassigned) [Compound 46]
Result: ≥ 1000 nM

Task: Now this one: COc1c([C@H]2[C@H](C(=O)Nc3ccc([C@H](O)CO)[n+]([O-])c3)O[C@@](C)(C(F)(F)F)[C@H]2C)ccc(F)c1C (relative stereo) [Compound 59]
Result: 10 to 100 nM

Task: Now this one: COc1c(C2C(C(=O)Nc3ccc(C(O)CO)nc3)OC(C)(C(F)(F)F)C2C)ccc(F)c1C (single isomer, unassigned) [Compound 44]
Result: ≥ 1000 nM

* * *

- target under test: human NaV 1.8 (Homo sapiens, UniProt Q9Y5Y9)
- method: E-VIPR assay detecting and measuring NaV inhibition properties
- condition info: HEK cells expressing a truncated form of human NaV 1.8; electrical stimulation, membrane potential FRET dyes
pIC50: −log10 of the molar value.
parameter: pIC50

Example entries and their recorded answers appear below.
- COc1c(C2C(C(=O)Nc3ccc(C(O)CO)nc3)OC(C)(C(F)(F)F)C2C)ccc(F)c1C(F)F (single isomer, unassigned) [Compound 51]: > 8.00
- CCOc1c([C@@H]2C[C@](C)(C(F)(F)F)O[C@H]2C(=O)Nc2ccc([C@H](O)CO)nc2)ccc(F)c1F (single isomer, unassigned): 6.00 to 7.00
- COc1nc(C(F)F)ccc1[C@@H]1[C@@H](C(=O)Nc2ccc(CO)nc2)O[C@](C)(C(F)(F)F)[C@@H]1C (stereo in doubt): ≤ 6.00
- COc1c([C@H]2[C@H](C(=O)Nc3cnc(C(O)CO)nc3)O[C@@](C)(C(F)(F)F)[C@H]2C)cccc1C(F)(F)F (single isomer, unassigned) [Compound 73]: 7.00 to 8.00
- CCOc1ccc([C@H]2[C@H](C(=O)Nc3ccc([C@@H](O)CO)nc3)O[C@@](C)(C(F)(F)F)[C@H]2C)c2c1OC(F)(F)O2 (single isomer, unassigned): ≤ 6.00

Task: Requested field: pIC50. Item: COc1c(C2C(C(=O)Nc3ccc(CO)nc3)OC(C)(C(F)(F)F)C2C)ccc(F)c1C(F)F (single isomer, unassigned) [Compound 52]
Result: ≤ 6.00

Task: Now this one: COc1c([C@H]2[C@H](C(=O)Nc3ccc([C@@H](O)CO)nc3)O[C@@](C)(C(F)(F)F)[C@H]2C)ccc(F)c1C (single isomer, unassigned)
Result: > 8.00

Task: Now this one: COc1c([C@H]2[C@H](C(=O)Nc3cnc(CO)nc3)O[C@@](C)(C(F)(F)F)[C@H]2C)ccc(OC(F)F)c1F
Result: 7.00 to 8.00

Task: Now this one: C[C@]1(C(F)(F)F)C[C@H](c2ccc(OC(F)(F)F)cc2Cl)[C@@H](C(=O)Nc2ccc([C@@H](O)CO)nc2)O1 (single isomer, unassigned)
Result: ≤ 6.00
